# subject of test: IL-23R (Homo sapiens)
# Sequence (Q5VWK5 24-629): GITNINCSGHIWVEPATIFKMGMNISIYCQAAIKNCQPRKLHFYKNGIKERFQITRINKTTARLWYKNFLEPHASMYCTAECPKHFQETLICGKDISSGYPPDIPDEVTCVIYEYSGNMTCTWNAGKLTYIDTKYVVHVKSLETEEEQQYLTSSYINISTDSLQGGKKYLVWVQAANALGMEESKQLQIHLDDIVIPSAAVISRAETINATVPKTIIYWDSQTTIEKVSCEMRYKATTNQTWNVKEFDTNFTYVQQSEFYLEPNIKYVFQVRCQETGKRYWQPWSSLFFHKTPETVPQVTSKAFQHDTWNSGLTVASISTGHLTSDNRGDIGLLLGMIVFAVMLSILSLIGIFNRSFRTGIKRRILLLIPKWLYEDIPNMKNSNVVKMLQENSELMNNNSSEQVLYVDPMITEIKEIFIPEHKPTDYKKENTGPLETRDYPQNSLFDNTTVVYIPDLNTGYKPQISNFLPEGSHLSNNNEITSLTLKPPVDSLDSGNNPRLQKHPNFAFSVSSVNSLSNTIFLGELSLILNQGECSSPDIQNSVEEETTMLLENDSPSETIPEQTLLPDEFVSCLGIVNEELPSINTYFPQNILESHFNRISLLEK
# procedure summary: DB cells IL23R pSTAT3 cell assay (pStat3 HTRF)
# Format: cell-based
pIC50: −log10 of the molar value.
measure name: pIC50

molecule	pIC50
CC(=O)NCCCC[C@H](NC(=O)C1(NC(=O)[C@H](Cc2ccc3ccccc3c2)NC(=O)[C@H](Cc2ccc(OCCN)cc2)NC(=O)[C@@H]2CSCC[C@H](NC(=O)[C@@H](CCCNC(=N)N)NC(C)=O)C(=O)N[C@@H](CCC(N)=O)C(=O)N[C@@H]([C@@H](C)O)C(=O)N[C@@H](Cc3c[nH]c4c(C)cccc34)C(=O)N[C@@H](CCC(N)=O)C(=O)N2)CCOCC1)C(=O)N[C@@H](CC(N)=O)C(=O)N[C@@H](CC(N)=O)C(N)=O [compound 29]	> 9.00
CC(=O)N[C@H](CCCNC(=N)N)C(=O)N[C@H]1CCSC[C@@H](C(=O)N[C@@H](Cc2ccc(OCCN)cc2)C(=O)N[C@@H](Cc2ccc3ccccc3c2)C(=O)NC2(C(=O)N[C@@H](CCC(=O)O)C(=O)N[C@@H](CC(N)=O)C(=O)N[C@@H](CC(N)=O)C(N)=O)CCOCC2)NC(=O)[C@H](CCC(N)=O)NC(=O)[C@H](Cc2c[nH]c3c(C)cccc23)NC(=O)[C@H]([C@@H](C)O)NC(=O)[C@H](CCC(N)=O)NC1=O [compound 27]	> 9.00
CC(=O)NCCCC[C@H](NC(=O)[C@](C)(CC(C)C)NC(=O)[C@H](Cc1c[nH]c2cc(Cl)ccc12)NC(=O)[C@H](Cc1ccc(OCCN)cc1)NC(=O)[C@H]1NC(=O)[C@H](CCC(N)=O)NC(=O)[C@H](Cc2c[nH]c3ccccc23)NC(=O)[C@H]([C@@H](C)O)NC(=O)[C@H](CC(N)=O)NC(=O)[C@@H](NC(C)=O)C(C)(C)SSC1(C)C)C(=O)N[C@@H](CC(N)=O)C(=O)N[C@@H](CC(N)=O)C(N)=O [compound 13]	8.00 to 9.00
CC(=O)NCCCC[C@H](NC(=O)[C@](C)(CC(C)C)NC(=O)[C@H](Cc1c[nH]c2c(C)cccc12)NC(=O)[C@H](Cc1ccc(OCCN)cc1)NC(=O)[C@H]1NC(=O)[C@H](CCC(N)=O)NC(=O)[C@H](Cc2c[nH]c3ccccc23)NC(=O)[C@H]([C@@H](C)O)NC(=O)[C@H](CC(N)=O)NC(=O)[C@@H](NC(C)=O)C(C)(C)SSC1(C)C)C(=O)N[C@@H](CC(N)=O)C(=O)N[C@@H](CC(N)=O)C(N)=O [compound 17]	7.00 to 8.00
CC(=O)NCCCC[C@H](NC(=O)[C@](C)(CC(C)C)NC(=O)[C@H](Cc1c[nH]c2c(F)cccc12)NC(=O)[C@H](Cc1ccc(OCCN)cc1)NC(=O)[C@H]1NC(=O)[C@H](CCC(N)=O)NC(=O)[C@H](Cc2c[nH]c3ccccc23)NC(=O)[C@H]([C@@H](C)O)NC(=O)[C@H](CC(N)=O)NC(=O)[C@@H](NC(C)=O)C(C)(C)SSC1(C)C)C(=O)N[C@@H](CC(N)=O)C(=O)N[C@@H](CC(N)=O)C(N)=O [compound 19]	7.00 to 8.00
CC(=O)NCCCC[C@H](NC(=O)[C@](C)(CC(C)C)NC(=O)[C@H](Cc1c[nH]c2ccc(Cl)cc12)NC(=O)[C@H](Cc1ccc(OCCN)cc1)NC(=O)[C@H]1NC(=O)[C@H](CCC(N)=O)NC(=O)[C@H](Cc2c[nH]c3ccccc23)NC(=O)[C@H]([C@@H](C)O)NC(=O)[C@H](CC(N)=O)NC(=O)[C@@H](NC(C)=O)C(C)(C)SSC1(C)C)C(=O)N[C@@H](CC(N)=O)C(=O)N[C@@H](CC(N)=O)C(N)=O [compound 12]	< 7.00

# batch: return pIC50 for each of the 4 molecules below
1. CC(=O)NCCCC[C@H](NC(=O)[C@](C)(CC(C)C)NC(=O)[C@H](Cc1c[nH]c2cc(C)ccc12)NC(=O)[C@H](Cc1ccc(OCCN)cc1)NC(=O)[C@H]1NC(=O)[C@H](CCC(N)=O)NC(=O)[C@H](Cc2c[nH]c3ccccc23)NC(=O)[C@H]([C@@H](C)O)NC(=O)[C@H](CC(N)=O)NC(=O)[C@@H](NC(C)=O)C(C)(C)SSC1(C)C)C(=O)N[C@@H](CC(N)=O)C(=O)N[C@@H](CC(N)=O)C(N)=O [compound 16]
2. CC(=O)NCCCC[C@H](NC(=O)[C@](C)(CC(C)C)NC(=O)[C@H](Cc1c[nH]c2cc(F)ccc12)NC(=O)[C@H](Cc1ccc(OCCN)cc1)NC(=O)[C@H]1NC(=O)[C@H](CCC(N)=O)NC(=O)[C@H](Cc2c[nH]c3ccccc23)NC(=O)[C@H]([C@@H](C)O)NC(=O)[C@H](CC(N)=O)NC(=O)[C@@H](NC(C)=O)C(C)(C)SSC1(C)C)C(=O)N[C@@H](CC(N)=O)C(=O)N[C@@H](CC(N)=O)C(N)=O [compound 14]
3. CC(=O)NCCCC[C@H](NC(=O)[C@](C)(CC(C)C)NC(=O)[C@H](Cc1ccc2ccccc2c1)NC(=O)[C@H](Cc1ccc(OCCN)cc1)NC(=O)[C@H]1NC(=O)[C@H](CCC(N)=O)NC(=O)[C@H](Cc2c[nH]c3c(F)cccc23)NC(=O)[C@H]([C@@H](C)O)NC(=O)[C@H](CC(N)=O)NC(=O)[C@@H](NC(C)=O)C(C)(C)SSC1(C)C)C(=O)N[C@@H](CC(N)=O)C(=O)N[C@@H](CC(N)=O)C(N)=O [compound 8]
4. CC(=O)NCCCC[C@H](NC(=O)[C@](C)(CC(C)C)NC(=O)[C@H](Cc1c[nH]c2ccc(F)cc12)NC(=O)[C@H](Cc1ccc(OCCN)cc1)NC(=O)[C@H]1NC(=O)[C@H](CCC(N)=O)NC(=O)[C@H](Cc2c[nH]c3ccccc23)NC(=O)[C@H]([C@@H](C)O)NC(=O)[C@H](CC(N)=O)NC(=O)[C@@H](NC(C)=O)C(C)(C)SSC1(C)C)C(=O)N[C@@H](CC(N)=O)C(=O)N[C@@H](CC(N)=O)C(N)=O [compound 18]

Marked response:
1. 8.00 to 9.00
2. 7.00 to 8.00
3. 7.00 to 8.00
4. 7.00 to 8.00

====

# procedure summary: in vitro
# experimental conditions: cynomolgus monkey, 20% fecal homogenate (supernatant), anaerobic, pH 6.8
Bridge positions count the residues as written; N and C are the ends. Square brackets hold non-standard residues; d marks the D form. Peptide text beside a SMILES is read from it. Trp(7-Me) = Cc1cccc2c(C[C@H](N)C(=O)O)c[nH]c12; Trp(1-Me) = Cn1cc(C[C@H](N)C(=O)O)c2ccccc21; 2Nal = N[C@@H](Cc1ccc2ccccc2c1)C(=O)O; AEF = NCCOc1ccc(C[C@H](N)C(=O)O)cc1; Cit = NC(=O)NCCC[C@H](N)C(=O)O; Pen = CC(C)(S)[C@H](N)C(=O)O; αMeK = C[C@](N)(CCCCN)C(=O)O; βAla = NCCC(=O)O
Would you kindly list half-life at 20 μM for each of these compounds?

Worked cases, answers included:
compound	half-life at 20 μM
CC(=O)NCCCC[C@H](NC(=O)[C@](C)(CC(C)C)NC(=O)[C@H](Cc1ccc2ccccc2c1)NC(=O)[C@H](Cc1ccc(OCCN)cc1)NC(=O)[C@H]1NC(=O)[C@H](CCC(N)=O)NC(=O)[C@H](Cc2c[nH]c3c(C)cccc23)NC(=O)[C@H]([C@@H](C)O)NC(=O)[C@H](CC(N)=O)NC(=O)[C@@H](NC(C)=O)C(C)(C)SSC1(C)C)C(=O)N[C@@H](CC(N)=O)C(=O)N[C@@H](CC(N)=O)C(N)=O [compound 6]	4 h
CC(=O)NCCCC[C@H](NC(=O)[C@](C)(CCCCN)NC(=O)[C@H](Cc1ccc2ccccc2c1)NC(=O)[C@H](Cc1ccc(OCCN)cc1)NC(=O)[C@H]1NC(=O)[C@H](CCCNC(N)=O)NC(=O)[C@H](Cc2cn(C)c3ccccc23)NC(=O)[C@H]([C@@H](C)O)NC(=O)[C@H](CC(N)=O)NC(=O)[C@@H](NC(C)=O)C(C)(C)SSC1(C)C)C(=O)NCCC(=O)NCCC(N)=O [compound 280] (Ac-[Pen]NT[Trp(1-Me)][Cit][Pen][AEF][2Nal][αMeK]K(Ac)[βAla][βAla]-NH2; disulfide 1-6)	> 24 h
CC(=O)NCCCC[C@@H]1NC(=O)[C@H](Cc2c[nH]c3c(C)cccc23)NC(=O)[C@H]([C@@H](C)O)NC(=O)[C@H](CC(N)=O)NC(=O)[C@@H](NC(C)=O)C(C)(C)SSC(C)(C)[C@@H](C(=O)N[C@@H](Cc2ccc(OCCN)cc2)C(=O)N[C@@H](Cc2ccc3ccccc3c2)C(=O)N[C@@](C)(CCCCN)C(=O)N[C@@H](CCCCNC(C)=O)C(=O)N[C@@H](CC(N)=O)C(=O)N2CCC[C@@H]2C(N)=O)NC1=O [compound 254]	> 24 h

The following compounds each have a reported value; give each one's half-life at 20 μM.
1. CC(=O)NCCCC[C@@H]1NC(=O)[C@H](Cc2c[nH]c3c(C)cccc23)NC(=O)[C@H]([C@@H](C)O)NC(=O)[C@H](CC(N)=O)NC(=O)[C@@H](NC(C)=O)C(C)(C)SSC(C)(C)[C@@H](C(=O)N[C@@H](Cc2ccc(OCCN)cc2)C(=O)N[C@@H](Cc2ccc3ccccc3c2)C(=O)N[C@@](C)(CCCCN)C(=O)N[C@@H](CCCCNC(C)=O)C(=O)N[C@@H](Cc2c[nH]cn2)C(=O)NCCC(N)=O)NC1=O [compound 272]
2. CC(=O)NCCCC[C@H](NC(=O)[C@](C)(CCCCN)NC(=O)[C@H](Cc1ccc2ccccc2c1)NC(=O)[C@H](Cc1ccc(OCCN)cc1)NC(=O)[C@H]1NC(=O)[C@H](CCCNC(N)=O)NC(=O)[C@H](Cc2c[nH]c3c(C)cccc23)NC(=O)[C@H]([C@@H](C)O)NC(=O)[C@H](CC(N)=O)NC(=O)[C@@H](NC(C)=O)C(C)(C)SSC1(C)C)C(=O)N[C@@H](CC(N)=O)C(=O)N[C@H](Cc1ccccc1)C(N)=O [compound 257] (Ac-[Pen]NT[Trp(7-Me)][Cit][Pen][AEF][2Nal][αMeK]K(Ac)N[dF]-NH2; disulfide 1-6)

Marked response:
1. > 24 h
2. 23 h

These data points were gathered from patent US20260116921A1.
